system: YES; construct: gene YES1; conditions: concentration: 1 μM, replicates: in singlicate; n = 1;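 note: KINOMEscan kinase panel screen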
Entry class follows %Inh: lower level: < 1%; middle level: ≥ 1% and < 20%; upper level: ≥ 20%

Prompt line: # bin lookup: classify Cc1occc1-c1ncc(OC[C@@H](N)Cc2c[nH]c3ccccc23)cc1-c1ccc2[nH]nc(C)c2c1.O=C(O)C(F)(F)F by its %Inh
Response line: upper level

Prompt line: Exam item: assign COc1cccc(C(=O)Nc2cccc(Oc3ccc4nc(NC(=O)C5CC5)cn4n3)c2)c1 to the correct category.
Response line: upper level

Prompt line: Could you place Cl.NC(=O)c1cccc(Nc2nccc(Nc3ccc(Oc4c(Cl)cccc4Cl)c(Cl)c3)n2)c1 in its proper category? Many thanks.
Response line: upper level

Prompt line: Each compound maps to one class by %Inh. Which class for CCn1c(-c2nonc2N)nc2c(C#CC(C)(C)O)ncc(OCCCCN)c21.O=C(O)C(F)(F)F.O=C(O)C(F)(F)F ?
Response line: middle level

Prompt line: Classify this compound: Cl.Cl.NCC(NCc1ccc(-c2ccnc3[nH]ccc23)s1)c1ccccc1 (stereo not shown)
Response line: lower level

Prompt line: # bin label for Cc1cccc(Nc2nc(N[C@H]3CCNC3)ncc2C(N)=O)c1.Cl
Response line: upper level

Prompt line: Given COc1ccc(-c2coc3ccc(-c4nnc(SCc5ccc(OC)c(C(F)(F)F)c5)o4)cc23)cc1 , name the class its %Inh places it in.
Response line: middle level

Prompt line: Category of Fc1ccc(-c2ncn(C3CCNCC3)c2-c2ccnc(Oc3ccc(-c4ccccc4)cc3)n2)cc1 , please.
Response line: lower level

Prompt line: Quick check: band for COc1cc(Nc2nccc(-c3c(-c4cccc(NC(=O)c5c(F)cccc5F)c4)nn4ccccc34)n2)cc(OC)c1OC
Response line: middle level

Prompt line: Looking at COc1cc2c(cc1OCCN1CCNCC1)ncc1c3ccc(C#N)cc3[nH]c21 , which class would you pick?
Response line: lower level

Prompt line: # bin label for Cn1cc(-c2ccc3c(c2)CCN3C(=O)Cc2cccc(F)c2)c2c(N)ncnc21
Response line: upper level

Prompt line: Where would COc1cccc(-c2ccc3c(NC(=O)C4CC4)n[nH]c3n2)c1 land among the classes by reported %Inh?
Response line: middle level

Prompt line: Form field 'band' for Nc1ncc(-c2ccc3nccc(-c4ccncc4)c3c2)cc1S(=O)(=O)N1CCOCC1
Response line: lower level

Prompt line: Please classify: COc1ccc(CNC(=O)NC2CCN(c3ccnc(Nc4ccc(F)cc4)n3)CC2)cc1
Response line: lower level

Prompt line: Hey, which category is COc1ccc(Nc2nccc(NCCNC(=O)c3cc4ccccc4s3)n2)cc1 in, do you know?
Response line: middle level

Prompt line: Form: Item = COc1cc(Nc2nccc(N3CCC(NC(=O)Nc4cccc(C(C)=O)c4)C3)n2)cc(OC)c1OC (stereo not shown) ; Class = ?
Response line: middle level

Prompt line: Which %Inh category applies to Cl.c1ccc(-c2ccc3c(Nc4ccc5[nH]ncc5c4)ccnc3c2)nc1 here?
Response line: middle level

Prompt line: Class? Entry: Cn1cc(-c2[nH]c3cc(NC(=O)[C@H](N)C4CCCCC4)cc4c3c2C=NNC4=O)cn1
Response line: upper level

Prompt line: Each compound maps to one class by %Inh. Which class for CN(c1ccc(NC(=O)Nc2cc(C(F)(F)F)ccc2F)cc1)c1ccnc(Nc2ccc(S(N)(=O)=O)cc2)n1 ?
Response line: upper level

Prompt line: Textbook exercise: identify the category of the compound given here, CCc1ccc(-c2ccc3c(c2)-c2c(cnn2C)S(=O)(=O)N3C)cc1 , according to its measured value.
Response line: lower level

Prompt line: Field: class (%Inh) — entry: O=c1[nH]cc(-c2ccc(N3CCOCC3)cc2)c2sc(-c3cn[nH]c3)cc12
Response line: lower level

Prompt line: Lab note: which band did CSc1cccc2c(-c3ccncn3)c(-c3ccc(F)cc3)nn12 land in?
Response line: middle level

Prompt line: Kindly identify the class of COCCOCCOc1cc2ncc3c4ccc(C#N)cc4[nH]c3c2cc1OC .
Response line: middle level

Prompt line: Class label required: CN(C)Cc1ccc(-c2ccc3c(Nc4ccc(Oc5ccccn5)cc4)ccnc3c2)o1
Response line: upper level

Prompt line: Class (by measured %Inh) for C[C@@H]1CC[C@@H](C(=O)Nc2ccccc2)CN1c1cc(-c2ccc3c(N)n[nH]c3c2)nc(N)n1
Response line: lower level

Prompt line: Hi, small favor: classify CNC(=O)c1ccccc1Nc1nc(Nc2ccc(N3CCOCC3)cc2)ncc1Cl.Cl by its %Inh when you get a moment.
Response line: upper level

Prompt line: Band of O=C(Nc1n[nH]c2nc(-c3ccc(O)cc3)ccc12)C1CC1 ?
Response line: lower level

Prompt line: Band for c1ccc(-c2cnc3nccnn23)cc1 ?
Response line: lower level

Prompt line: Place this compound in its band: Clc1ccc(-c2nn3ncccc3c2-c2ccnc(Nc3ccc4c(c3)OCCO4)n2)cc1
Response line: upper level

Prompt line: For this compound, which bin applies? COc1cc(Nc2ncc3c(C)nc(-c4cc5ccccc5[nH]4)n3n2)cc(OC)c1OC
Response line: upper level

Prompt line: Form: Item = Cc1cccc(NC(=O)Nc2ccc(Oc3ncnc4ccn(C)c34)cc2)c1 ; Class = ?
Response line: lower level

----------
test system: ASK2; construct: gene MAP3K6; details: concentration: 1 μM, replicates: in singlicate; n = 1
parameter: %Inh (%)
Supply the numeric figure in %, leaving out any unit text.

Value of %Inh reported for the molecule Cc1occc1-c1ncc(OC[C@@H](N)Cc2c[nH]c3ccccc23)cc1-c1ccc2[nH]nc(C)c2c1.O=C(O)C(F)(F)F is 7

Note to self: %Inh recorded for COc1cccc(C2=C(Nc3ccc(Cl)c(C(=O)O)c3)C(=O)NC2=O)c1 was 100

Reported %Inh for CN(C)S(=O)(=O)c1cc(-c2ccc3nccc(-c4cccc(S(N)(=O)=O)c4)c3c2)cnc1N was 5

Sure, the documented %Inh for CC(C)c1nc(-c2cccc(NS(=O)(=O)c3c(F)cccc3F)c2F)c(-c2ccnc(Nc3ccc(N4CCOCC4)nc3)n2)s1 is 3

Quick note, %Inh for Nc1ncnc2c1nc(-c1ccccc1)n2-c1ccccc1 landed at 29

Measured %Inh, Cn1cc(-c2ccc3c(c2)CCN3C(=O)Cc2cccc(F)c2)c2c(N)ncnc21 : 0

For record Cc1cccc(Nc2nc(N[C@H]3CCNC3)ncc2C(N)=O)c1.Cl the listed %Inh is 3

Looking up COc1cc(Nc2ncc3c(C)nc(-c4cc5ccccc5[nH]4)n3n2)cc(OC)c1OC , I see its %Inh listed as 0

Lab note: measured %Inh of Cc1ccc(S(=O)(=O)Nc2ccc(Nc3nccc(Nc4cccc5[nH]ncc45)n3)cc2)cc1 was 0

The molecule listed as CC(C)(C)c1ccc2nccc(Nc3cccc(O)c3)c2c1 shows %Inh equal to 0

Record COc1ccc(Nc2nccc(NCCNC(=O)c3cc4ccccc4s3)n2)cc1 , field %Inh: 0

response.value for COc1ccc(Nc2nccc(N3CCC(NC(=O)Nc4cccc(OC)c4)C3)n2)cc1 (centres unmarked) (field: %Inh) = 13

Form: molecule = Cl.c1ccc(-c2ccc3c(Nc4ccc5[nH]ccc5c4)ccnc3c2)nc1 ; %Inh = 0

%Inh reported for this molecule COc1cccc(NC(=O)NC2CCN(c3ccnc(Nc4cc(OC)c(OC)c(OC)c4)n3)C2)c1 (centres unmarked) : 11

Data point: Cn1cc(-c2[nH]c3cc(NC(=O)[C@H](N)C4CCCCC4)cc4c3c2C=NNC4=O)cn1 ; %Inh = 0

Notebook: CN1CCN(CCCNc2nccc(-c3c(-c4ccc(F)cc4)nn4cc(C(F)(F)F)ccc34)n2)CC1 , %Inh read as 0

Lab note: measured %Inh of CCCCc1nn2ncccc2c1-c1ccnc(Nc2ccc(N3CCN(C)CC3)cc2)n1 was 16

----------
Answer each item with its documented %Inh.
test system: HUNK; details: concentration: 1 μM, replicates: in singlicate; n = 1
Just the number please, in %, no unit attached.

Tested on HUNK, the item O=C(Nc1cccc(-c2nn3ncccc3c2-c2ccnc(Nc3ccccc3)n2)c1)c1c(F)cccc1F showed %Inh equal to 3

Result for Cl.c1ccc(-c2ccc3c(Nc4ccc5[nH]ncc5c4)ccnc3c2)nc1 , tested on HUNK, %Inh: 9

# CN(C)Cc1ccc(-c2ccc3c(Nc4ccc(Oc5ccccn5)cc4)ccnc3c2)o1 with HUNK: %Inh is 0

Form field, %Inh with HUNK, item Cc1ccc(S(=O)(=O)Nc2ccc(Nc3nccc(Nc4cccc5[nH]ncc45)n3)cc2)cc1 : 2

Record for Clc1ccc(-c2nn3ncccc3c2-c2ccnc(Nc3ccc4c(c3)OCCO4)n2)cc1 under target or system HUNK: %Inh reported as 50

// returns %Inh for c1ccc(Oc2ccc(Nc3ccnc4cc(-c5ccc(CNCCN6CCOCC6)o5)ccc34)cc2)nc1 with HUNK; value = 12

The recorded %Inh with HUNK for O=C(Nc1cccc(-c2nn3ccccc3c2-c2ccnc(Nc3cccc(C(F)(F)F)c3)n2)c1)c1c(F)cccc1F was 0

For the compound CCCCc1nn2ncccc2c1-c1ccnc(Nc2ccc(N3CCN(C)CC3)cc2)n1 , the measured %Inh on HUNK was 0

Reading of %Inh for COc1cc(Nc2nccc(-c3c(-c4cccc(NC(=O)c5c(F)cccc5F)c4)nn4ncccc34)n2)cc(OC)c1OC with HUNK: 12

Measured %Inh (HUNK), entry Cl.NC(=O)c1cccc(Nc2nccc(Nc3ccc(Oc4c(Cl)cccc4Cl)c(Cl)c3)n2)c1 : 0

Record COc1cc(Nc2nccc(N3CCC(NC(=O)Nc4cccc(C(C)=O)c4)C3)n2)cc(OC)c1OC (stereo not drawn) / HUNK, %Inh recorded as 0

Reported HUNK %Inh for item CCS(=O)(=O)c1ccc(OC)c(Nc2nccc(-c3c(-c4cccc(NC(=O)c5c(F)cccc5F)c4)nn4ncccc34)n2)c1 was 22
